Target: T1, CTLA4 on the cells of the reporter gene bioassay (human, UniProt P16410 36-223)
T1 sequence (looked up): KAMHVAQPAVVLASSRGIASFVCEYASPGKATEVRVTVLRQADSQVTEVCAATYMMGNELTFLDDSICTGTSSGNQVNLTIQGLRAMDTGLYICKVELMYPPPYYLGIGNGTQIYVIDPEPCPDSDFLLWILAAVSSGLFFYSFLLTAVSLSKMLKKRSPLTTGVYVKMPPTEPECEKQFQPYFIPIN
Experiment: cell-based or functional assay
QUANTITY_NAME: Relative Potency (%)
# output: bare number, implied unit %

Heat-stressed Tremelimumab (40° C.), month 0 (oxidation study) (antibody, human IgG2, kappa, V domains shown, oxidation by peptide mapping: Trp-52 1.8%, Met-256 1.3%, Met-362 1.6%, Met-401 1.6%, Met-432 1.2%) VH: QVQLVESGGGVVQPGRSLRLSCAASGFTFSSYGMHWVRQAPGKGLEWVAVIWYDGSNKYYADSVKGRFTISRDNSKNTLYLQMNSLRAEDTAVYYCARDPRGATLYYYYYGMDVWGQGTTVTVSS VL: DIQMTQSPSSLSASVGDRVTITCRASQSINSYLDWYQQKPGKAPKLLIYAASSLQSGVPSRFSGSGSGTDFTLTISSLQPEDFATYYCQQYYSTPFTFGPGTKVEIKR ... 100
Heat-stressed Tremelimumab (40° C.), month 1 (oxidation study) (antibody, human IgG2, kappa, V domains shown, oxidation by peptide mapping: Trp-52 1.6%, Met-256 1.4%, Met-362 2.1%, Met-401 2.4%, Met-432 1.5%) VH: QVQLVESGGGVVQPGRSLRLSCAASGFTFSSYGMHWVRQAPGKGLEWVAVIWYDGSNKYYADSVKGRFTISRDNSKNTLYLQMNSLRAEDTAVYYCARDPRGATLYYYYYGMDVWGQGTTVTVSS VL: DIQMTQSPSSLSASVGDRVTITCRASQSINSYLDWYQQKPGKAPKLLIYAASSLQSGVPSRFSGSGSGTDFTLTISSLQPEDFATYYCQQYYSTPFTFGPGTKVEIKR ... 112

# evaluate next
Find the recorded Relative Potency (%) belonging to Heat-stressed Tremelimumab (40° C.), month 2 (oxidation study) (antibody, human IgG2, kappa, V domains shown, oxidation by peptide mapping: Trp-52 2.5%, Met-256 2.0%, Met-362 2.6%, Met-401 3.8%, Met-432 2.2%) VH: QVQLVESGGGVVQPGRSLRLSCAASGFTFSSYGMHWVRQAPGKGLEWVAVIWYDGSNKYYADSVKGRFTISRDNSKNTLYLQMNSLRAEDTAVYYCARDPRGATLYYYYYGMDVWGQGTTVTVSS VL: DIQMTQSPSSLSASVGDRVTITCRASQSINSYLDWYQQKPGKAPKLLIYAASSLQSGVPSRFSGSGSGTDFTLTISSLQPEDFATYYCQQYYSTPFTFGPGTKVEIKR and report it.
101
